tested on: CDK2; conditions: concentration: 1 μM, replicates: in singlicate; n = 1;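 also: KINOMEscan kinase panel screen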
The following molecules are listed with their measured %Inh values.
Kindly provide the numeric value in % only, without the unit symbol.

Cn1cnc2c(N)ncnc21 [SKF-97623]    44
COc1ccc(CSc2nnc(-c3ccc4ncsc4c3)o2)cc1C(F)(F)F    1
COC(=O)c1cccc(NC(=O)NC2CCN(c3ccnc(Nc4ccc(F)cc4)n3)C2)c1 (centres unmarked) [GSK1379725]    0

May I ask what %Inh has been recorded for CNc1nc(-c2ccc3c(N)n[nH]c3c2)cc(N2C[C@@H](C(=O)NC3CCCCC3)OC[C@H]2C)n1 [GSK2375584] ?
0

Please answer likewise for COc1ccc(CSc2nnc(-c3ccc4c(c3)CCO4)o2)cc1
0

Please answer likewise for COc1ccc(CSc2nnc(-c3ccc4nccn4c3)o2)cc1C(F)(F)F
0

Please answer likewise for Cc1ccc(-c2nc(Nc3ccncc3)c3ccccc3n2)s1 [GSK189015]
24

Please answer likewise for Cc1ccc(NC(=O)Nc2ccccc2)cc1-c1ccc(C(=O)Nc2ccncc2)cc1 [GSK1398471]
1

---

tested on: PIM3; conditions: concentration: 1 μM, replicates: in singlicate; n = 1
The following compounds are listed with their measured %Inh values.
Kindly provide the numeric value in % only, without the unit symbol.

The examples below pair each entry with its known result.
CSc1ccc(-c2nc3n(c2-c2ccncc2)CCC3)cc1 [SKF-105561]    1
CCCCc1nn2ncccc2c1-c1ccnc(NC2CC2)n1 [GW684374]    0
Nc1ncnc2occ(-c3ccc4c(c3)CCN4C(=O)Cc3cc(F)ccc3F)c12 [GSK2645446]    0

Let's switch to this compound now.
May I ask what %Inh has been recorded for Cc1ccc(NC(=O)Nc2ccccc2F)cc1-c1ccc(C(=O)Nc2ccncc2)cc1 [GSK1398477] ?
0

---

test system: MST3; construct: gene STK24; settings: concentration: 1 μM, replicates: in singlicate; n = 1
The following molecules are listed with their measured %Inh values.
# output: number + unit

CC(=O)c1c(C)c2cnc(Nc3ccn(C)n3)nc2n(C2CCCC2)c1=O    10%
COc1ccc(CSc2nnc(-c3ccc4ncsc4c3)o2)cc1C(F)(F)F    0%
CC(=O)c1cccc(NC(=O)NC2CCN(c3ccnc(Nc4ccc(F)cc4)n3)C2)c1 (centres unmarked)    3%
Cc1ccccc1-c1cc(-c2c[nH]nc2-c2ccccn2)ccn1    0%
O=C(Nc1n[nH]c2nc(-c3cccs3)c(Br)cc12)C1CC1    0%
COc1cccc(CNC(=O)NC2CCN(c3ccnc(Nc4ccc(F)cc4)n3)C2)c1 (centres unmarked)    0%

Let's switch to this molecule now.
May I ask what %Inh has been recorded for Cc1nccc(-c2c(-c3ccc(F)cc3)ncn2CCCN2CCOCC2)n1.Cl ?
0%

---

tested on: STK33; details: concentration: 1 μM, replicates: in singlicate; n = 1
value_kind: %Inh (%)
Kindly provide the numeric value in % only, without the unit symbol.

The examples below pair each entry with its known result.
COc1cccc(CNC(=O)NC2CCN(c3ccnc(Nc4ccc(F)cc4)n3)C2)c1 (stereo not drawn)    0
Cc1ccc(NC(=O)c2ccc(Cl)cc2)cc1-c1ccc(C(=O)Nc2ccncc2)cc1    0
CCn1c(-c2c(N)noc2C)nc2cnccc21    0
Cc1c(Cn2c3ccccc3n3c(=O)cc(N4CCOCC4)nc23)cccc1C(F)(F)F    6
COC(=O)C(NC(=O)NC1CCN(c2ccnc(Nc3ccc(F)cc3)n2)C1)c1ccccc1 (stereo not drawn)    0

Could you share what %Inh was measured for Cc1ccc(NC(=O)Nc2ccc(Cl)cc2)cc1-c1ccc(C(=O)Nc2ccncc2)cc1 , tested on STK33?
0

Please answer likewise for COC(=O)C(Cc1ccccc1)NC(=O)NC1CCN(c2ccnc(Nc3ccc(F)cc3)n2)C1 (stereo not drawn)
8

Please answer likewise for O=c1cc(N2CCOCC2)nc2n(Cc3cccc(Cl)c3Cl)c3ccccc3n12
18

Please answer likewise for Cc1ccccc1-c1cc(-c2c[nH]nc2-c2ccccn2)ccn1
0
